pKi: −log10 of the molar value.
pKi tested on UniProtKB P35563: recorded values
Sequence (P35563 24-483): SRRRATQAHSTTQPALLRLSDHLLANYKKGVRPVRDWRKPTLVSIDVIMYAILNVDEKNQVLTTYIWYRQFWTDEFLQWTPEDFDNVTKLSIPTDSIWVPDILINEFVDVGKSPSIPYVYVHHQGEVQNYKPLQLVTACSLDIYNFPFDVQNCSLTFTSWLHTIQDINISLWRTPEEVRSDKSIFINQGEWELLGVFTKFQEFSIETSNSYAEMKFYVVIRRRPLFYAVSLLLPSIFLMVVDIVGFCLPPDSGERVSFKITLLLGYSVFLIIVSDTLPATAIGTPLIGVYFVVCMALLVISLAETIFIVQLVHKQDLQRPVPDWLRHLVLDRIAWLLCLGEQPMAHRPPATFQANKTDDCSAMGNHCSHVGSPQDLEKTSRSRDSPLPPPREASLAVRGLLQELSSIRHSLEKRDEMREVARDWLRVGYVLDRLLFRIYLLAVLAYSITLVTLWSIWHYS

{"compound": "CC(C)n1c(=O)n(C(=O)NC[C@@H]2CCN3CCC[C@@H]23)c2ccccc21 (relative stereo) [Example 23]", "pKi": 7.12}
{"compound": "CC(C)n1c(=O)n(C(=O)NC2C3CC4CC2CN(C4)C3)c2cc(Cl)ccc21 (centres unmarked) [Example 22B]", "pKi": 8.31}

====

# System: 5-HT3
# test.name: Bezold-Jarisch Reflex (5-HT-induced bradycardia in anesthetized mice)
# Format: in vivo
# test.settings: i.p., 30 min before 5-HT (0.25 mg/kg i.v.), >50 percent reduction in bradycardic response vs vehicle
# cutoff 1 mg/kg applies to Minimum Effective Dose (MED); >= gives TRUE, < gives FALSE

{"molecule": "CC(C)n1c(=O)n(C(=O)NCCC23CCCN2CCC3)c2ccccc21", "group": "TRUE"}
{"molecule": "CCN(CC)CCNC(=O)c1cc(Cl)c(N)cc1OC [metoclopramide]", "group": "TRUE"}
{"molecule": "CN1C2CCCC1CC(NC(=O)c1nn(C)c3ccccc13)C2 (stereo not shown)", "group": "FALSE"}
{"molecule": "CN1[C@@H]2C[C@@H](OC(=O)[C@H](CO)c3ccccc3)C[C@H]1[C@@H]1O[C@@H]12", "group": "TRUE"}
{"molecule": "CCC(CO)NC(=O)C1C=C2c3cccc4c3c(cn4C)CC2N(C)C1 (stereo not shown) [methylsergide]", "group": "TRUE"}
{"molecule": "O=c1[nH]c2ccccc2n1CCCN1CCC(n2c(=O)[nH]c3cc(Cl)ccc32)CC1", "group": "TRUE"}
